B1: Hairpin Ribozyme (parent)
chain: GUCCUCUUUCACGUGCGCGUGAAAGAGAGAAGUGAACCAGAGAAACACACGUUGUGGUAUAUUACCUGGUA

Variants of: B1
Assay: self-cleavage, relative activity (ratio to wild type); higher = more cleavage; co-transcriptional
Items are presented alongside their recorded self-cleavage.
// no unit string in output, number only

Value of measured self-cleavage for the entry G13U A45U : 0.136

Value of measured self-cleavage for the entry C50U G54C : 0.534

Value of measured self-cleavage for the entry A28C A43C : 0.125
